# AUClast values compiled below
Test system: Rattus norvegicus
Assay: AUClast in rat at 10 mg/kg, po after 24 hrs
Format: ADME, organism-based, Plasma
Design: time < 24 hr, dose 10 mg/kg, route oral
Conditions: in vivo
measure: AUClast (ng·h/mL)

[
  {
    "molecule": "CCc1nn(-c2ccccc2)c2cc(N3CCN(C4CCNC4)CC3)ccc12 (configuration not stated)",
    "test-target": "Rattus norvegicus",
    "meas-value": 4890
  },
  {
    "molecule": "CCc1nn(-c2ccccc2)c2cc(N3CC4CNCC4C3)ccc12 (configuration not stated)",
    "test-target": "Rattus norvegicus",
    "meas-value": 5680
  }
]

###

# half-life values compiled below
Test: Half life in rat at 10 mg/kg, po after 24 hrs
Assay type: ADME, organism-based
Design: dose 10 mg/kg, route oral
Conditions: in vivo

[
  {
    "compound": "CCc1nn(-c2ccccc2)c2cc(N3CC4CNCC4C3)ccc12 (configuration not stated)",
    "half-life": "3.41 h"
  },
  {
    "compound": "CCc1nn(-c2ccccc2)c2cc(N3CCN(C4CCNC4)CC3)ccc12 (configuration not stated)",
    "half-life": "19.6 h"
  }
]

###

Assay: Metabolic stability in rat liver microsomes assessed as compound remaining after 10 mins
Type: ADME, Microsome
Settings: read-out: Stability
# remaining at 10 min values compiled below

[
  {
    "smiles-str": "CSc1nn(-c2cccc(F)c2)c2cc(C3=CCNCC3)ccc12",
    "units-text": "%",
    "remaining at 10 min": 96
  },
  {
    "smiles-str": "CSc1nn(-c2ccccc2)c2cc(C3=CCNCC3)ccc12",
    "units-text": "%",
    "remaining at 10 min": 72
  },
  {
    "smiles-str": "CSc1nn(-c2ccc(F)cc2)c2cc(C3=CCNCC3)ccc12",
    "units-text": "%",
    "remaining at 10 min": 105
  }
]

###

# bioavailability values compiled below
Assay: Bioavailability in rat at 10 mg/kg, po after 24 hrs
Conditions: in vivo

[
  {
    "compound": "CCc1nn(-c2ccccc2)c2cc(N3CC4CNCC4C3)ccc12 (configuration not stated)",
    "bioavailability (%)": 98.8
  },
  {
    "compound": "CCc1nn(-c2ccccc2)c2cc(N3CCN(C4CCNC4)CC3)ccc12 (configuration not stated)",
    "bioavailability (%)": 72.4
  }
]

###

Test: Clearance in rat at 2 mg/kg, iv after 24 hrs
Format: ADME, organism-based
Parameters: dose 2 mg/kg, route intravenous
Conditions: in vivo

[
  {
    "compound": "CCc1nn(-c2ccccc2)c2cc(N3CC4CNCC4C3)ccc12 (configuration not stated)",
    "units-text": "mL/min/kg",
    "clearance": 28.9
  },
  {
    "compound": "CCc1nn(-c2ccccc2)c2cc(N3CCN(C4CCNC4)CC3)ccc12 (configuration not stated)",
    "units-text": "mL/min/kg",
    "clearance": 21.2
  }
]

###

Target: Ketohexokinase (Homo sapiens, UniProt P50053)
Sequence (P50053 whole entry): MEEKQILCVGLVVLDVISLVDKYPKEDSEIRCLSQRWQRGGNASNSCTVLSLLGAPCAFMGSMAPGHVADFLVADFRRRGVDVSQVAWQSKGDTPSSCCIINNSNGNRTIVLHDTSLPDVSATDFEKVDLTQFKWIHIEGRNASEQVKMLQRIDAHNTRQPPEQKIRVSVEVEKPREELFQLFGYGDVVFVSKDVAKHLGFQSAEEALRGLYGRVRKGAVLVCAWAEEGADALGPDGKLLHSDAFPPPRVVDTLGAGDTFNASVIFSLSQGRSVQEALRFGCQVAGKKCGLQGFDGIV
Note that class boundaries on IC50 are low bin (below 80 nM), mid bin (80 nM to below 500 nM), high bin (500 nM or more)

[
  {
    "smiles-str": "CSc1nn(-c2ccc([N+](=O)[O-])cc2)c2cc(C3=CCNCC3)ccc12",
    "category": "mid bin"
  },
  {
    "smiles-str": "COc1ccc(-n2nc(SC)c3ccc(C4=CCNCC4)cc32)cc1",
    "category": "mid bin"
  },
  {
    "smiles-str": "CSc1nn(-c2ccccc2)c2cc(C3CCNCC3)ccc12",
    "category": "mid bin"
  },
  {
    "smiles-str": "CSc1nn(-c2ccc(F)cc2)c2cc(C3=CCNCC3)ccc12",
    "category": "low bin"
  },
  {
    "smiles-str": "CSc1nn(-c2ccccc2)c2cc(NC(=O)CC3CCNCC3)ccc12",
    "category": "high bin"
  },
  {
    "smiles-str": "CSc1nn(-c2cccc(F)c2)c2cc(C3=CCNCC3)ccc12",
    "category": "low bin"
  },
  {
    "smiles-str": "CSc1nn(-c2ccccc2)c2cc(-c3ccncc3)ccc12",
    "category": "high bin"
  },
  {
    "smiles-str": "CSc1nn(-c2cccc(C)c2)c2cc(C3=CCNCC3)ccc12",
    "category": "low bin"
  },
  {
    "smiles-str": "Cn1nc(-c2ccccc2)c2cc(N3CCNCC3)ccc21",
    "category": "high bin"
  },
  {
    "smiles-str": "CCc1nc(-c2ccccc2)n2cc(N3CCNCC3)ccc12",
    "category": "high bin"
  },
  {
    "smiles-str": "CSc1nn(-c2ccccc2)c2c(C3=CCNCC3)cccc12",
    "category": "high bin"
  }
]

Values were extracted from ChEMBL document CHEMBL1806448.
